Origin of values: PubChem BioAssay AID2113

target: Lysosomal alpha-glucosidase (Homo sapiens) (UniProt P10253); test: Confirmation of Inhibitors and Activators of Human alpha-Glucosidase From Spleen Homogenate; settings: alpha-glucosidase enzyme activity; series mostly up to 60.5 µM;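 on Potency: fluorescence of 4-methylumbelliferone released from a fluorogenic glucopyranoside substrate at pH 5; potency means the concentration at half of the fitted maximal effect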
Results filed as inconclusive are left out. Activity calls are given as the source filed them. The call rests on the fitted dose curve; in most records, active means well fitted curve in either direction with a large enough effect; inconclusive means small, poorly fitted or top-dose-only effect; inactive means no such curve, though single readings can be large or run the other way.
property: Potency

These recorded examples may help you get a feel for the data.
>>> result("COc1ccc(/C=c2\\s/c(=C/C(=O)c3ccc(C)cc3)[nH]c2=O)cc1OC")
"inactive"
>>> result("CC1CCc2nc(-c3cc4c(ccc5ccccc54)oc3=O)sc2C1 (centres undefined)")
"inactive"
>>> result("Clc1cc2c(cc1/C=C/c1ccc3ccccc3n1)OCO2")
"inactive"
>>> result("CC1S/C(=N\\N=C\\c2cccc([N+](=O)[O-])c2)N(C(C)(C)C)C1=O (centres undefined)")
"inactive"

# query: Potency of entry O=S(=O)(c1ccccc1F)N1CCOCC1
inactive

Item O=c1oc2ccc(Cl)cc2cc1-c1nc2c(s1)CCc1ccccc1-2 has what recorded Potency?
inactive

Please give the measured Potency for this molecule: COc1cc(=O)[nH]c(=O)n1C(=O)Cc1ccccc1
inactive

Quick one: Potency for N#Cc1ccc(N2CCN(S(=O)(=O)c3ccc4c(c3)CC(=O)N4)CC2)cc1 ?
1.16 µM [inhibitor] (active)

Can you look up the measured Potency of O=Cc1ccc(N2CCN(S(=O)(=O)c3ccc4c(c3)CC(=O)N4)CC2)cc1 for me?
4.61 µM [inhibitor] (active)

Entry N#CCCN1CCN(S(=O)(=O)c2ccc(S(=O)(=O)N3CCOCC3)cc2)CC1 : reported Potency = ?
inactive

State the recorded Potency for this entry: O=C(O)c1c[nH]c2ccc(S(=O)(=O)N3CCOCC3)cc12
inactive

Which Potency is reported for this molecule? NC(=O)NN=C1c2cc(S(=O)(=O)N3CCOCC3)ccc2-c2ccc(S(=O)(=O)N3CCOCC3)cc21
inactive

Consider the molecule CC(C)CNc1c(N)n(CC(C)C)c(=O)[nH]c1=O and give its measured Potency.
inactive

* * *

target: Lysosomal alpha-glucosidase (Homo sapiens) (UniProt P10253); assay: Confirmation of Inhibitors and Activators of Human alpha-Glucosidase From Spleen Homogenate; details: alpha-glucosidase enzyme activity; series mostly up to 60.5 µM;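 on Potency: fluorescence of 4-methylumbelliferone released from a fluorogenic glucopyranoside substrate at pH 5; potency means the concentration at half of the fitted maximal effect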
Results filed as inconclusive are left out. Active and inactive are the calls of the source. Calls follow the shape of the dose curve; as a rule, active = well fitted curve in either direction with a large enough effect; inconclusive = small, poorly fitted or top-dose-only effect; inactive = no such curve, though single readings can be large or run the other way.
property: Potency

>>> result("O=C(NN=C1c2ccccc2-c2ccccc21)c1cccc(S(=O)(=O)N2CCOCC2)c1")
"inactive"
>>> result("CN1CCN(S(=O)(=O)c2ccccc2)CC1")
"inactive"
>>> result("O=S(=O)(c1ccc(Br)cc1)N1CCOCC1")
"inactive"
>>> result("CC1(C)CC(=O)c2cc(C(=O)NC3CCSC3=O)c(=O)n(-c3ccccc3)c2C1 (stereo not drawn)")
"inactive"
>>> result("Clc1ccc(-c2ccnc(Oc3cc(Cl)ccc3Cl)n2)cc1")
"inactive"

Then this compound:
Param item = CC1(C)CC(=O)c2cc(C(=O)NCc3ccco3)c(=O)n(-c3ccc(Cl)cc3)c2C1 ; retrieve measured Potency.
inactive

* * *

target: Lysosomal alpha-glucosidase (Homo sapiens) (UniProt P10253); assay: Confirmation of Inhibitors and Activators of Human alpha-Glucosidase From Spleen Homogenate; conditions: alpha-glucosidase enzyme activity; series mostly up to 60.5 µM
Results filed as inconclusive are left out. Activity calls are given as the source filed them. Calls follow the shape of the dose curve; as a rule, active = well fitted curve in either direction with a large enough effect; inconclusive = small, poorly fitted or top-dose-only effect; inactive = no such curve, though single readings can be large or run the other way.
Respond using exactly one of the listed classes: 1 = active, 0 = inactive

Which outcome did this test record for the compound COc1ccc(N2CCN(S(=O)(=O)c3ccc4c(c3)CC(=O)N4)CC2)cc1 ?
1

* * *

biological target: Lysosomal alpha-glucosidase (Homo sapiens) (UniProt P10253); test: Confirmation of Inhibitors and Activators of Human alpha-Glucosidase From Spleen Homogenate; conditions: alpha-glucosidase enzyme activity; series mostly up to 60.5 µM
Inconclusive results are not listed. Calls of active or inactive are those of the source. Calls come from the whole dose curve; as a rule, active = well fitted curve in either direction with a large enough effect; inconclusive = small, poorly fitted or top-dose-only effect; inactive = no such curve, though single readings can be large or run the other way.
Please reply with one of these outcomes: label 1 for active, label 0 for inactive

>>> group("Cc1ccc(C(=O)c2sc3c(c2N)c(=O)[nH]c(=O)n3CCc2ccccc2)cc1")
"label 0"
>>> group("O=S(=O)(c1ccc2nc(-c3ccco3)c(-c3ccco3)nc2c1)N1CCOCC1")
"label 0"
>>> group("COc1ccc2nc(-c3ccc(N(C)C)cc3)sc2c1")
"label 1"
>>> group("COc1cccc2ccc(/C=C/c3ccc4c(c3)OCO4)nc12")
"label 0"
>>> group("O=c1[nH]c2ccccc2nc1/C=C/c1ccc2c(c1)OCO2")
"label 0"
>>> group("CCCCn1c(N)c(NCC)c(=O)[nH]c1=O")
"label 0"
>>> group("Cc1ccc(S(=O)(=O)N2CCOCC2)cc1C")
"label 0"
>>> group("O=S(=O)(c1ccc(Cl)cc1)N1CCN(c2nc(Nc3cc(Cl)ccc3O)nc3ccccc23)CC1")
"label 0"
>>> group("CC/C(=C(\\c1ccccc1)c1ccc(OCCN(C)C)cc1)c1ccccc1")
"label 0"
>>> group("CC(N=C(NC#N)Nc1ccncc1)C(C)(C)C (centres undefined)")
"label 0"

Answer briefly: the call reported for OC[C@H]1NC[C@@H](O)[C@@H]1O in this assay.
label 0

For COc1cc2cc(CN(Cc3nnnn3Cc3ccccc3)CC3CCCO3)c(=O)[nH]c2cc1OC (centres undefined) , what call appears in the results of this test?
label 0

Outcome? COc1ccc(OC)c(/C=C/C(=O)N(C)CC(=O)Nc2ccc(C)cc2)c1
label 0

Please share the test call associated with Nc1ccc(S(=O)(=O)N2CCOCC2)cc1 .
label 0

Could you kindly confirm the outcome this assay logged for O=S(=O)(c1ccccc1)N1CCN(S(=O)(=O)c2ccccc2)CC1 ?
label 0

GET /call?item= CCCN1CNc2c(c(=O)[nH]c(=S)n2CCc2cc(Cl)ccc2Cl)C1 returns the recorded outcome of this test.
label 1

* * *

Biological target: Lysosomal alpha-glucosidase (Homo sapiens)
Assay: Confirmation of Inhibitors and Activators of Human alpha-Glucosidase From Spleen Homogenate;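 on Potency: fluorescence of 4-methylumbelliferone released from a fluorogenic glucopyranoside substrate at pH 5; potency means the concentration at half of the fitted maximal effect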
Settings: alpha-glucosidase enzyme activity; series mostly up to 60.5 µM
Text: NIH Chemical Genomics Center [NCGC] NIH Molecular Libraries Probe Production centers Network [MLPCN] Assay Submitter (PI): Wei Zheng […] This is a fluorogenic enzyme assay with 4-methylumbelliferyl-alpha-D-glucopyranoside as the substrate and human spleen homogenate containing alpha-glucosidase as the enzyme preparation. Upon hydrolysis of this fluorogenic substrate, the resulting product, 4-methylumbelliferone (which excites at 365 nm and emits at 440 nm) can be detected by a fluorescence plate reader. […]
Inconclusive results are not listed. Active and inactive are the calls of the source. The call rests on the fitted dose curve; in most records, active means well fitted curve in either direction with a large enough effect; inconclusive means small, poorly fitted or top-dose-only effect; inactive means no such curve, though single readings can be large or run the other way. Residues, ends and D or L forms follow the SMILES beside them.
property: Potency

>>> result("CN(CCO)S(=O)(=O)c1ccc2c(c1)C(=NNC(N)=O)c1cc(S(=O)(=O)N(C)CCO)ccc1-2")
"inactive"
>>> result("CCCN1CNc2c(c(=O)[nH]c(=S)n2CCc2c(C)cccc2C)C1")
"inactive"
>>> result("Cn1cnc2c(NCc3ccccc3)nc(NCCO)nc21")
"inactive"
>>> result("O=C(CSc1ccccc1)Nc1nnc(/C=C/c2ccccc2)s1")
"inactive"

Need Potency of CCCC[C@H](NC(=O)[C@@H]1CCCN1C(=O)[C@H]1CCCN1C(=O)[C@H](Cc1ccccc1)NC(=O)[C@@H](Cc1c[nH]c2ccccc12)NC(=O)[C@H](C)NC(=O)[C@H](CCCN=C(N)N)NC(=O)OC(C)(C)C)C(N)=O (HELM PEPTIDE1{[CC(C)(C)OC(=O)[*:2]].R.A.[dW].F.[dP].P.[Nle].[am]}$$$$V2.0) , thanks.
inactive

Using the record for COc1ccc(CCn2c(N)cc(=O)[nH]c2=S)cc1OC , report its Potency.
inactive

Tell me the measured Potency of N#Cc1cccc(S(=O)(=O)N2CCOCC2)c1 , please.
inactive

So what's the measured Potency for this one? O=C(c1ccccc1)N1CCN(C(=O)N(c2ccccc2)c2ccccc2)CC1
inactive

Please report the recorded Potency for CC(=O)c1ccc(N2CCN(S(=O)(=O)c3ccc4c(c3)C(Cl)(Cl)C(=O)N4)CC2)cc1 .
32.6 µM [inhibitor] (active)

Item COc1ccc(CCn2c(=S)[nH]c(=O)c3c(C)cc(C)nc32)cc1OC has what recorded Potency?
inactive

Tell me the measured Potency of COc1ccc(CCn2c3c(c(=O)[nH]c2=S)CN(C(C)C)CN3)cc1OC , please.
44.7 µM (active)

Which measured Potency value corresponds to COc1ccc(C#Cc2cnc(Cl)c3cncnc23)cc1OC ?
inactive

Which measured Potency value corresponds to CC(=O)c1ccc(N2CCN(S(=O)(=O)c3ccc4c(c3)CCCN4C(C)=O)CC2)cc1 ?
inactive

// lookup Potency for Cc1ccc(-c2nc(-c3cc4ccccc4oc3=O)sc2C)cc1
inactive

Dear colleague, I am looking for the recorded Potency of the following compound: C=CCSc1nc(-c2ccc3c(c2)OCO3)cc(C(F)(F)F)c1C#N
inactive

For the compound shown here, COC(=O)c1c(NC(=O)Cn2nc(C(F)F)cc2C(F)F)sc(C)c1C , give the reported Potency.
inactive

What Potency value was documented for this compound, Cc1c(Nc2c3ccccc3nc3ccccc23)c(=O)n(-c2ccccc2)n1C ?
inactive

# Potency lookup, item CCc1sc(-c2cc3ccccc3oc2=O)nc1-c1cc(C)ccc1C
31.6 µM (active)

Name the reported Potency value associated with the compound COc1cccc2cc(-c3nc(-c4ccc(C)cc4)c(C)s3)c(=O)oc12
inactive
